target: PDE4D (Homo sapiens); construct: PDE4D: The catalytic domain of human PDE4B from S3 16-V692; His6 (N); thrombin cleavage site (N); made in house; host or cells: E. coli; experiment: PDE4 IC50 determination by Scintillation Proximity Assay, PDE4D; format: biochemical; details: Table 1B, Formula I compounds; read-out: IC50 PDE4D
Sequence (Q08499 380-756): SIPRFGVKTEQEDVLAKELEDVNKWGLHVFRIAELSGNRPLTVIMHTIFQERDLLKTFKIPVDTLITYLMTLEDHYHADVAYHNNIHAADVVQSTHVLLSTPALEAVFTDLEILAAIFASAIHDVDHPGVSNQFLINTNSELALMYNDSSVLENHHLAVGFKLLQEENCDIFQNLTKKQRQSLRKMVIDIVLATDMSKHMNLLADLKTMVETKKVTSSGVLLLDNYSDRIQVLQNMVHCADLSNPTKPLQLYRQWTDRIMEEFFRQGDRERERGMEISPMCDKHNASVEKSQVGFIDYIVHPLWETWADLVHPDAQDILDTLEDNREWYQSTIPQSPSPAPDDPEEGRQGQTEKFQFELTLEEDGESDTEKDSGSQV
pIC50: −log10 of the molar value.
measured.attribute: pIC50

Answered cases to consult:
COC(=O)C(CCSC)Nc1sc(C(=O)c2ccccn2)c(N)c1C#N (centres unmarked) | < 5.00
N#Cc1c(NCCN2CCCCC2)sc(C(=O)c2ccccn2)c1N | < 5.00
CC(C)C(C)Nc1sc(C(=O)c2cc(-c3ccc(Cl)c(Cl)c3)no2)c(N)c1C#N (centres unmarked) | < 5.00
CSc1cccc(Nc2sc(C(=O)c3ccccc3)c(N)c2C#N)c1 | > 5.00
COc1ccc(Nc2sc(C(=O)c3ccc(OC)cc3OC)c(N)c2C#N)cc1 | > 5.00

# input Entry `COc1ccc(C(=O)c2sc(Nc3ccc(F)cc3)c(C#N)c2N)cc1` needs its pIC50 filled in; supply it.
# output > 5.00

# input Annotate the compound N#Cc1c(Nc2ccc(C(=O)NC3CCOC3=O)cc2)sc(C(=O)c2cc(-c3ccccc3)no2)c1N (centres unmarked) with its measured pIC50.
# output > 5.00

# input State its pIC50: `N#Cc1c(Nc2ccc(Oc3ccccc3)cc2)sc(C(=O)c2cccc(Cl)c2)c1N`
# output < 5.00

# input Answer with reported pIC50 of `CC(C)CNc1sc(C(=O)c2cc(-c3ccc(Cl)c(Cl)c3)no2)c(N)c1C(N)=O`
# output > 5.00

# input Give pIC50 for `N#Cc1c(NC2CCCC2)sc(C(=O)c2csc(-c3ccccc3)n2)c1N`
# output > 5.00

# input Kindly indicate its recorded pIC50. Item: COC(=O)C(CC(C)C)Nc1sc(C(=O)c2cc(-c3ccc(Cl)c(Cl)c3)no2)c(N)c1C#N (centres unmarked)
# output < 5.00
